# STUDY TARGET: Recombinant STAT3 protein (STAT3(G127-I722)) (Homo sapiens)
# Construct: STAT3(G127-I722)
# Sequence (P40763 127-722, species assumed): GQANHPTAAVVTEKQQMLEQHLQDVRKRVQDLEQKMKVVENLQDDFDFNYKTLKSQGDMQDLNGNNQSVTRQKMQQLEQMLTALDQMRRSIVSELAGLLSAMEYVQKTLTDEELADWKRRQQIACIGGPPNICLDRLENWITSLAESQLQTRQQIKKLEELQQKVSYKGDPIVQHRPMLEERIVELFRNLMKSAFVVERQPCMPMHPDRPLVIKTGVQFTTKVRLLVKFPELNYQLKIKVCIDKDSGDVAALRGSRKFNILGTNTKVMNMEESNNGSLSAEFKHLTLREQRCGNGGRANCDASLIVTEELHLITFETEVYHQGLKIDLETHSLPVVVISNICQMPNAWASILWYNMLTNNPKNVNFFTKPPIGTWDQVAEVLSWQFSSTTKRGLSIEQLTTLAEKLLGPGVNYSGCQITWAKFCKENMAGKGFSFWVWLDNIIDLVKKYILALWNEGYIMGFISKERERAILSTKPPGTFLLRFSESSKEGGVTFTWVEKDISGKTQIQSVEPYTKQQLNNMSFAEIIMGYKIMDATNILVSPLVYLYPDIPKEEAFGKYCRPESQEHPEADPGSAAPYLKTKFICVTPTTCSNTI
# METHOD SUMMARY: STAT3 Fluorescence Polarization (FP) Assay
# SETTINGS: STAT3(G127-I722) 25 nM, probe 5-FAM-GpYLPQTV-NH2 2 nM, 45-minute incubation
RECORDED METRIC: IC50

Quick one: IC50 of O=C(N[C@H]1C[C@@H]2C[C@@H]2C[C@H]2CC[C@@H](C(=O)N3CCC34CCCCC4)N2C1=O)c1cc2cc(C(F)P(=O)(O)O)ccc2s1 (some centres unmarked) [Example 388] ? 1000 to 10000 nM

Quick one: IC50 of CC(=O)N1CC[C@H](NC(=O)[C@@H]2CC[C@@H]3C[C@H]4C[C@H]4C[C@H](NC(=O)c4cc5cc(C(F)(F)P(=O)(O)O)ccc5s4)C(=O)N32)C1 [Compound 117] ? < 100 nM

Quick one: IC50 of N#CC1(c2ccccn2)CN(C(=O)[C@@H]2CC[C@@H]3C[C@@H]4C[C@@H]4C[C@H](NC(=O)c4cc5cc([C@H](F)P(=O)(O)O)ccc5s4)C(=O)N32)C1 (single isomer, unassigned) [Example 355] ? < 100 nM

Quick one: IC50 of CC1(C(=O)N2CCOCC2)CN(C(=O)[C@@H]2CC[C@@H]3C[C@H]4C[C@H]4C[C@H](NC(=O)c4cc5cc(C(F)(F)P(=O)(O)O)ccc5s4)C(=O)N32)C1 [Compound 93] ? 100 to 1000 nM

Quick one: IC50 of COc1ccncc1C1CN(C(=O)[C@@H]2CC[C@@H]3C[C@@H]4C[C@@H]4C[C@H](NC(=O)c4cc5cc([C@H](F)P(=O)(O)O)ccc5s4)C(=O)N32)C1 (single isomer, unassigned) [Example 353] ? < 100 nM

Quick one: IC50 of O=C(N[C@H]1C[C@H]2C[C@H]2C[C@H]2CC[C@@H](C(=O)N3CC(C(=O)N4CCOCC4)C3)N2C1=O)c1cc2cc(C(F)(F)P(=O)(O)O)ccc2s1 [Compound 71] ? < 100 nM

Quick one: IC50 of O=C(N[C@H]1C[C@@H]2C[C@@H]2C[C@H]2CC[C@@H](C(=O)N3CC(F)(c4ccccc4)C3)N2C1=O)c1cc2cc(C(F)(F)P(=O)(O)O)ccc2s1 [Compound 64] ? < 100 nM

Quick one: IC50 of O=C(N[C@H]1C[C@@H]2C[C@@H]2C[C@H]2CC[C@@H](C(=O)N3CC(c4cn[nH]c4)C3)N2C1=O)c1cc2cc(C(F)(F)P(=O)(O)O)ccc2s1 [Example 288] ? < 100 nM

Quick one: IC50 of Cc1ccncc1C1CN(C(=O)[C@@H]2CC[C@@H]3C[C@@H]4C[C@@H]4C[C@H](NC(=O)c4cc5cc(C(F)(F)P(=O)(O)O)ccc5s4)C(=O)N32)C1 [Compound 56] ? < 100 nM

Quick one: IC50 of CCc1ccncc1C1CN(C(=O)[C@@H]2CC[C@@H]3C[C@H]4C[C@H]4C[C@H](NC(=O)c4cc5cc(C(F)P(=O)(O)O)ccc5s4)C(=O)N32)C1 (some centres unmarked) [Example 266] ? < 100 nM

Quick one: IC50 of Cc1ccncc1C1CN(C(=O)[C@@H]2CC[C@@H]3C[C@@H]4C[C@@H]4C[C@H](NC(=O)c4cc5cc(CP(=O)(O)O)ccc5s4)C(=O)N32)C1 [Example 243] ? < 100 nM

Quick one: IC50 of O=C(N[C@H]1C[C@@H]2C[C@@H]2C[C@H]2CC[C@@H](C(=O)N3CC(O)(c4ccccn4)C3)N2C1=O)c1cc2cc(C(F)(F)P(=O)(O)O)ccc2s1 [Compound 87] ? < 100 nM

Quick one: IC50 of O=C(N[C@H]1C[C@@H]2C[C@@H]2C[C@H]2CC[C@@H](C(=O)N3CC(n4ccnc4)C3)N2C1=O)c1ccc2ccc(C(F)(F)P(=O)(O)O)cc2c1 [Compound 46] ? < 100 nM

Quick one: IC50 of O=C(N[C@H]1C[C@@H]2C[C@@H]2C[C@H]2CC[C@@H](C(=O)N3CCOc4ccccc43)N2C1=O)c1cc2cc(C(F)P(=O)(O)O)ccc2s1 (some centres unmarked) [Example 372] ? 1000 to 10000 nM

Quick one: IC50 of CN1CCN(c2ccncc2C2CN(C(=O)[C@@H]3CC[C@@H]4C[C@H]5C[C@H]5C[C@H](NC(=O)c5cc6cc([C@H](F)P(=O)(O)O)ccc6s5)C(=O)N43)C2)CC1 (single isomer, unassigned) [Example 403] ? < 100 nM

Quick one: IC50 of NC(=O)N1C[C@H](NC(=O)[C@@H]2CC[C@@H]3C[C@H]4C[C@H]4C[C@H](NC(=O)c4cc5cc(C(F)P(=O)(O)O)ccc5s4)C(=O)N32)[C@@H](F)C1 (some centres unmarked) [Example 330] ? < 100 nM

Quick one: IC50 of Cc1cccc(C2CN(C(=O)[C@@H]3CC[C@@H]4C[C@@H]5C[C@@H]5C[C@H](NC(=O)c5cc6cc([C@H](F)P(=O)(O)O)ccc6s5)C(=O)N43)C2)n1 (single isomer, unassigned) [Example 370] ? < 100 nM

Quick one: IC50 of O=C(N[C@H]1C[C@@H]2C[C@@H]2C[C@H]2CC[C@@H](C(=O)N3CC(c4cnccc4F)C3)N2C1=O)c1cc2cc(C(F)(F)P(=O)(O)O)ccc2s1 [Example 303] ? < 100 nM

Quick one: IC50 of COC1(c2nccn2C)CN(C(=O)[C@@H]2CC[C@@H]3C[C@@H]4C[C@@H]4C[C@H](NC(=O)c4cc5cc(C(F)(F)P(=O)(O)O)ccc5s4)C(=O)N32)C1 [Compound 75] ? < 100 nM

Quick one: IC50 of C[C@]12CC(NC(=O)c3cc4cc(C(F)(F)P(=O)(O)O)ccc4s3)C(=O)N3[C@H](CC[C@H]3C(=O)N3CC(c4cccnc4)C3)[C@H]1C2 (some centres unmarked) [Compound 37] ? < 100 nM

Provenance of the data: patent US20250215030A1
